B1: library; the commonest letter at each place (parent)
chain: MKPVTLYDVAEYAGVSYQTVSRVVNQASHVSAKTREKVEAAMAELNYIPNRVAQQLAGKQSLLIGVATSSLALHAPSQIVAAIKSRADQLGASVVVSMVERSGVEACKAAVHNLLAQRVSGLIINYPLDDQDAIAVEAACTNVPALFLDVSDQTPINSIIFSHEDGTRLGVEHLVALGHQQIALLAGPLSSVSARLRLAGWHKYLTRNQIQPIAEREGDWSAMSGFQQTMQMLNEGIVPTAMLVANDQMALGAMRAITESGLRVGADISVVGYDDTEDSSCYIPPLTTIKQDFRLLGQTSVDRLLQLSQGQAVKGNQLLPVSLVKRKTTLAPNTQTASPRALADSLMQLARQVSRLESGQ

# Variants of: B1
# measurement_description: saturating output G-infinity (YFP) (log10 MEF); higher = higher reporter expression at saturating IPTG
# measurement_setup: with IPTG
# reported saturating output G-infinity (log10); entries follow
quantity_name: saturating output G-infinity (log10)

{"columns": ["mutations", "reported"],
 "data": [
  ["V15I F161I A266T K290R M347I", 4.37],
  ["Q60R N113S R207G R216G V271M L307I A350T", 4.4],
  ["V136E", 4.01],
  ["Q55H D130E V192A T258I D267N Y273H N333I", 3.68],
  ["E44D R101G R303S R355L", 4.46],
  ["E11K A67P F161S A186V M230L D344N", 4.24],
  ["M42L V66I S93N D132V", 4.18],
  ["G200C", 4.49],
  ["S70R S97T", 4.36],
  ["A82G", 4.41],
  ["L62M A109V D149E M242V P285S Q317R", 4.41],
  ["S70R", 4.22],
  ["L169P", 4.3],
  ["G103D H202Y P284T", 4.46],
  ["L56M A194V", 4.55],
  ["S70R I83F", 4.35],
  ["S69T V80L", 4.18],
  ["N125D", 4.44],
  ["A82V", 4.25],
  ["V94M S190C G200A Q209R R263H Q317L", 4.45],
  ["G121V G261V", 4.42],
  ["I83M S97T V136E", 4.11]
]}
